Just for reference, PubChem BioAssay AID1851 is where these values come from.

TARGET SYSTEM: Cytochrome P450 3A4 (Homo sapiens) (UniProt P08684)
Sequence (P08684 whole entry, looked up): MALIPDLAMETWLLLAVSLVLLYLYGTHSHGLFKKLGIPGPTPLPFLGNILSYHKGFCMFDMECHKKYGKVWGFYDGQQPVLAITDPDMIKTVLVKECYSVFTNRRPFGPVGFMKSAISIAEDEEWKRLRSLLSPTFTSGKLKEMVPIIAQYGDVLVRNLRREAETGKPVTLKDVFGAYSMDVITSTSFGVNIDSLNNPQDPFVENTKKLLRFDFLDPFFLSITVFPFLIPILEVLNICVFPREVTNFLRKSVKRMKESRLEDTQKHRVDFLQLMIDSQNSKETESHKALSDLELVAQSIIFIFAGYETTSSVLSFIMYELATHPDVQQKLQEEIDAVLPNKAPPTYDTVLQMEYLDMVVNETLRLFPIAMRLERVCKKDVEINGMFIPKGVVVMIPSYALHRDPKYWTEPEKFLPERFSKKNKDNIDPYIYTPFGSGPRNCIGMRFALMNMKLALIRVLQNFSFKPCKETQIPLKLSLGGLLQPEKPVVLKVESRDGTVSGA
ASSAY PROTOCOL: Cytochrome panel assay with activity outcomes
CONDITION: recombinant CYP, pro-luciferin dealkylation, luminescence, p450-cyp3a4; series mostly up to 57.1 µM
Screen size: about 16,000 compounds; about 5,100 (32%) were called active. Inconclusive results (about 25%) are left out. Calls come from the whole dose curve; as a rule, active = well fitted curve in the direction sought with a large enough effect; inconclusive = small, poorly fitted or top-dose-only effect, or effect the other way; inactive = no such curve, though single readings can be large or run the other way. This is one part of the list.
Choose one outcome from this list and give only that: T (active), F (inactive)

> print(dat)
                                  smiles.str  cat
 1      COc1ccccc1CNc1ccnc(-c2cccc(C#N)c2)n1    T
 2     CCOC(=O)c1oc2nc(CC(C)C)c3c(c2c1N)CCC3    T
 3  COC(=O)/C(=C\C(=O)c1ccccc1)Nc1cccc(C(F)(F)F)c1    F
 4             NNC(=O)CCc1ccc2ccc3ccccc3c2c1    T
 5  COc1ccc(CNc2ccnc(-c3cccc(C#N)c3)n2)c(OC)c1    T
 6                Cc1cc(=O)c2cc(Cl)ccc2[nH]1    F
 7                 NC(=NCCC[C@H](N)C(=O)O)NO    F
 8  CCCCn1c(NCc2ccccc2NS(=O)(=O)c2ccc(C)cc2)nc2ccccc21    T
 9  CN(C)S(=O)(=O)Oc1ccccc1C(=O)Nc1cccc(C(F)(F)F)c1    T
10                  CCNC(=S)NNC(=O)Cc1ccccc1    F

QUERY: State the result this test recorded for CN(C)S(=O)(=O)Oc1ccc(Cl)cc1C(=O)Nc1cccc(C(F)(F)F)c1 .
RESULT: T

QUERY: State the result this test recorded for CCNC(=S)NNC(=O)c1cccc(Br)c1 .
RESULT: F

* * *

TARGET SYSTEM: Cytochrome P450 3A4 (Homo sapiens)
ASSAY PROTOCOL: Cytochrome panel assay with activity outcomes
CONDITION: recombinant CYP, pro-luciferin dealkylation, luminescence, p450-cyp3a4; series mostly up to 57.1 µM
About 5,100 (32%) of roughly 16,000 compounds were called active. Inconclusive results (about 25%) are left out. The list shows a part of the results.
MEASURED METRIC: AC50

The examples below pair each entry with its known result.
> print(dat)
                                 smiles.str                       target.system            result
1  CN(C)c1ncc2nc(-c3cc(F)cc(F)c3)c(=O)n(C[C@H]3CCCO3)c2n1  Cytochrome P450 3A4 (Homo sapiens)          inactive
2  CN(C)c1ncc2nc(-c3ccccc3)c(=O)n(CCC#N)c2n1  Cytochrome P450 3A4 (Homo sapiens)          inactive
3  CC(=O)OC[C@@H]1O[C@H](CCO/N=C(\C)CCC(=O)OC[C@@H]2O[C@H](C#Cc3ccccc3)C=C[C@@H]2Oc2ccc(C)cc2)C=C[C@@H]1OC(C)=O  Cytochrome P450 3A4 (Homo sapiens)  3.16 µM (active)
4  COCCn1c(=O)c(-c2ccc(F)cc2)nc2cnc(N(C)C)nc21  Cytochrome P450 3A4 (Homo sapiens)          inactive
5  CN(C)c1ncc2nc(-c3cccs3)c(=O)n(CCc3ccccc3)c2n1  Cytochrome P450 3A4 (Homo sapiens)          inactive

Summary for this molecule, CN(C)c1ncc2nc(-c3cccs3)c(=O)n(C[C@H]3CCCO3)c2n1 : AC50 is 25.1 µM (active)

Summary for this molecule, CN(C)c1ncc2nc(-c3ccc(F)cc3)c(=O)n(C[C@H]3CCCO3)c2n1 : AC50 is inactive

Summary for this molecule, COCCn1c(=O)c(-c2cccs2)nc2cnc(N(C)C)nc21 : AC50 is 7.94 µM (active)

Summary for this molecule, COc1ncc2nc(C)c(=O)n(CCC#N)c2n1 : AC50 is inactive

Summary for this molecule, COCCn1c(=O)c(-c2cccs2)nc2cnc(Oc3ccc(OC)cc3)nc21 : AC50 is 0.794 µM (active)
